Just for reference, patent US20240041042A1 is where these values come from.

# System: Amaranthus retroflexus (AMARE)
# Measurement notes: Pre-emergence herbicidal action against AMARE
# Format: in vivo
# Experimental conditions: 80 g/ha, visual scoring after about 3 weeks vs untreated controls
Pre-emergence action against AMARE in % listing for selected compounds.
Measured endpoint: Pre-emergence action against AMARE in % (%)

| Compound | Assay value |
| --- | --- |
| CCOC(=O)COc1nn(-c2ncccc2F)c(-c2ccc(F)nc2)c1Cl | 100 |
| COC(=O)C(C)NC(=O)[C@@H](C)Oc1nn(-c2ccccn2)c(-c2ccc(F)nc2)c1Cl (some centres unmarked) | 80 |
| O=C(COc1nn(-c2ccccn2)c(-c2ccc(F)nc2)c1Br)OCC1CCOC1 (centres unmarked) | 100 |
| O=C(O)CSc1nn(-c2ccccn2)c(-c2cncc(F)c2)c1Cl | 80 |
| CC(C)=NOC(=O)COc1nn(-c2ncccc2F)c(-c2ccc(F)nc2)c1Br | 90 |
| CCOC(=O)[C@@H](C)Oc1nn(-c2ncccc2F)c(-c2ccc(F)nc2)c1C(F)(F)F | 100 |
| COC(=O)CCOC(=O)[C@@H](C)Oc1nn(-c2ccccn2)c(-c2cncc(F)c2)c1Cl | 100 |
| COC(=O)CCOC(=O)COc1nn(-c2ccccn2)c(-c2cncc(F)c2)c1Br | 90 |
